- System: Aβ40 in conditioned medium of cells stably expressing Amyloid Precursor Protein (APP)
- test_protocol: In vitro BACE cell-based assay (Aβ40 sandwich ELISA)
- condition: Homo sapiens, HEK293, HEK cells; average; read-out: HEK cell assay IC50
pIC50: −log10 of the molar value.

[
  {
    "compound": "COCc1cc(Cl)cnc1C(=O)Nc1cc(F)c(F)c([C@]2(C)C[C@@H](C(F)(F)F)OC(N)=N2)c1 [Example 199]",
    "pIC50": 7.89
  },
  {
    "compound": "C[C@@]1(c2cc(NC(=O)c3cnc(OCC(F)(F)F)cn3)cc(Cl)c2F)C[C@@H](C(F)(F)F)OC(N)=N1 [Example 214]",
    "pIC50": 7.54
  },
  {
    "compound": "COc1cnc(C(=O)Nc2cc(F)c(F)c([C@]3(C)C[C@@H](C(F)(F)F)OC(N)=N3)c2)c(C)n1 [Example 173]",
    "pIC50": 7.07
  },
  {
    "compound": "C#CCOc1cnc(C(=O)Nc2cc(Cl)c(F)c([C@]3(C)C[C@@H](C(F)(F)F)OC(N)=N3)c2)cn1 [Example 212]",
    "pIC50": 9.00
  }
]
